Experiment: label from the status in PepcDB records
Value kind: protein production

{"columns": ["Query sequence", "Result"],
 "data": [
  ["MGMTRNLLAAGLAAVLALPALAAELVMVEQHGCEWCARWNEEIAPIYPKTAEGAFAPLRRVDLRAIPADLETARRVVFTPTFLIVEDGRELARLEGYPGEDFFWPLLEQLLVDHAGFVPKKPGSS", "failed"],
  ["MKLIDLHVHSYHSDGVLAPAVLVAMAAERGLASLAIADHDAVDGIDEAVAEGVRLGVDVIPAVELSVELGRFSDLHILGYCIDHHDPAFRDKLAGFRSARDNRGKAILEKINRRLLHSRKAPLSYDEVLSMAGGAVGRPHIGRVLVDNGYARDMEDAFRRYLIPCNVPKRYMPAGEAIAEIRRIGGVSVLAHPPTITDDRRRLRQVVEQLAQLGLDGLEVFNNLCFKDDMLYLERLAEEFGLLMTGGSDFHGFEDDVELGRGRGGLAVAHSLAEKVKELAAQRKHSHA", "failed"],
  ["MGVPEPRPDWSRRLLGQGEAPDPRFTLANERTFLAWVRTALALLGGAIAIETFAGHVLETPLRLWLVAGLMLLSALLSAGACLRWLRVERALRRRRPLPLPALVPLLALGCLVAVLLAGLVLWPRWHG", "failed"],
  ["MYSGAYSFVQISTAAYRISITRLEKTMESLQQQVAQLLEQQPTLLPAAMAEQLNVTEFDIVHALPEEMVAVVDGSHAQTILESLPEWGPVTTIMTIAGSIFEVKAPFPKGKVARGYYNLMGRDGELHGHLKLENISHVALVSKPFMGRESHYFGFFTAQGENAFKIYLGRDEKRELIPEQVARFKAMQQQHKQLEHHHHHH", "not failed"]
]}

sequence `MTNERVMQLIREAYEKNLTTLDLSENQLTQLPSEITELKNLTTLNLSGNQLTQLPSEIGELKSLTSFDLSVNQLTQLPPEIGELKNLTILNVYRNQLIQLLPEITELKNLTTLDLSLNKLTQLPPLEHHHHHH` , protein production observed: failed

For reference, reported protein production for `PFMDQSGGGVTFCGGEPLLHPEFLIDILKRCGQQGIHRAVDTTLLARKETVDEVMRNCELLLIDLKSMDSTVHQTFCDVPNELILKNIRRVAEADFPYYIRIPLIEGVNADEKNIKLSAEFLASLPRHPEIINLLPYHDIGKGKHAKLGSIYNPKGYKMQTPSEEVQQQCIQILTDYGLKATIGG` stands at not failed

Just so you know, measured protein production for `MAKYDVLTIGNAIVDIIARCDDSFLEENGIIKGAMNLINADRAELLYSRMGPAVEASGGSAGNTAAGVASLGGRAAYFGKVADDQLGEIFTHDIRAQGVHFQTKPLDGHPPTARSMIFVTEDGERSMNTYLGACVELGPEDVEDDVVAQSKVTYFEGYLWDPPRAKDAIREAARIAHAHGRETAMTLSDSFCVHRYRSEFLELMRSGTVDIVFANRQEALALYETEDFDRALELLARDCKLAAVTLSEEGSVVVRGAERVRVGASVLEQVVDTTGAGDLYAAGFLFGYTSGRSLEECSKLGNLAAGIVIGQIGPRPLVSLATAARQAALV` came out at not failed

Record `MLKGIPKIIPPELLKVLCEMGHGDQLVIADGNFPAESIGKNAIVVRMDGHGGGEILKAILTVFPLDTYVDKPATLMEKVPGDTVATPIWDVYAGLIKEHDERGADAIGSLERFAFYEQAKNAYCVIASGESAQYANLILQKGVVFNAE` , field protein production: not failed
